- System Name: T1, recombinant human EphA5 (rhEphA5) antigen (human, UniProt P54756 25-573)
- T1 construct: also called human EphA5 (R and D systems, Cat. No. 3036-A5); recombinant EphA5
- T1 sequence (P54756 25-573 limits assumed): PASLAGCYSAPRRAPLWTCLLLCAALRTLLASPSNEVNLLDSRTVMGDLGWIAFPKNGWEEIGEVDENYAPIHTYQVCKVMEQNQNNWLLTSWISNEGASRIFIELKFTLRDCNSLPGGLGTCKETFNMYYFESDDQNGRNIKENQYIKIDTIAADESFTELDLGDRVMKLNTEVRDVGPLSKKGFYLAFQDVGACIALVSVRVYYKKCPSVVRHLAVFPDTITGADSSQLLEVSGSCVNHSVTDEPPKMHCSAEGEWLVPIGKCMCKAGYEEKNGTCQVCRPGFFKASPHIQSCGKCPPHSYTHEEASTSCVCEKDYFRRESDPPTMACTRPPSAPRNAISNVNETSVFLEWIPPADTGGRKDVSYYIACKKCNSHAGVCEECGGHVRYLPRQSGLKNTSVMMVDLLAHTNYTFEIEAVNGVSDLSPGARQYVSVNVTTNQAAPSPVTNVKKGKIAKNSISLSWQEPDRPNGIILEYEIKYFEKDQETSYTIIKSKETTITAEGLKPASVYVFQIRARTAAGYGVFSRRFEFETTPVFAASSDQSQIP
- Measurement Description: SPR single-cycle kinetics (Biacore T200), IgG from HEK supernatant captured on anti-human IgG CM5 chip, rhEphA5 as analyte, 1:1 fit
- Parameters: reference not given here
Measurement Kind: Relative KD
Respond with the number and no other words.

Below: 4 binders and their reported Relative KD.
>  <Binder>
VH4/VK2 humanized 11C12 antibody (antibody, human IgG1, kappa, V domains shown, Human IgG1/kappa; tested as HEK293 EBNA supernatant; also called H4K2) VH: EVQLVESGGGLVQPGGSLKLSCAASGFTFSTFGIHWVRQAPGKGLEWVAYISGASTTIYYADTVKGRFTISRDNSKNTLYLQMNSLRAEDTAVYYCARYGTSFPYGLDYWGQGTLVTVSS VL: DIVMTQSPDSLAVSLGERATINCKASQSVDYDGDSYMNWYQQKPGKAPKLLIYGASNLESGIPDRFSGSGSGTDFTLTISRLEPEDAASYYCQQSNEDPFTFGQGTKLEIKR

>  <Relative KD>
0.64

$$$$
>  <Binder>
VH5/VK5 humanized 11C12 antibody (antibody, human IgG1, kappa, V domains shown, Human IgG1/kappa; tested as HEK293 EBNA supernatant; also called H5K5) VH: EVQLVESGGGLVQPGGSLKLSCAASGFTFSTFGIHWVRQAPGKGLEWVAYISGASTTIYYADSVKGRFTISRDNSKNTLYLQMNSLRAEDTAVYYCARYGTSFPYGLDYWGQGTLVTVSS VL: DIVMTQSPDSLAVSLGERATINCKSSQSVDYDGDSYMNWYQQKPGKAPKLLIYGASNLESGIPDRFSGSGSGTDFTLTISRLEPEDAAVYYCQQSNEDPFTFGQGTKLEIKR

>  <Relative KD>
0.77

$$$$
>  <Binder>
VH5/VK2 humanized 11C12 antibody (antibody, human IgG1, kappa, V domains shown, Human IgG1/kappa; lead variant, tested as HEK supernatant and as protein purified from CHO; also called H5K2) VH: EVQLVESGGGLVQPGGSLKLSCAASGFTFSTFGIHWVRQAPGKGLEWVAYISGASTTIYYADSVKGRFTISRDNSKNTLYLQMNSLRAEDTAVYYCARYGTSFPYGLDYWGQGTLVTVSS VL: DIVMTQSPDSLAVSLGERATINCKASQSVDYDGDSYMNWYQQKPGKAPKLLIYGASNLESGIPDRFSGSGSGTDFTLTISRLEPEDAASYYCQQSNEDPFTFGQGTKLEIKR

>  <Relative KD>
0.67

$$$$
>  <Binder>
VH6/VK1 humanized 11C12 antibody (antibody, human IgG1, kappa, V domains shown, Human IgG1/kappa; tested as HEK293 EBNA supernatant; also called H6K1) VH: EVQLVESGGGLVQPGGSLKLSCAASGFTFSTFGIHWVRQAPGKGLEWVASISGASTTIYYADSVKGRFTISRDNSKNTLYLQMNSLRAEDTAVYYCARYGTSFPYGLDYWGQGTLVTVSS VL: DIVMTQSPGSLAVSLGERATINCKASQSVDYDGDSYMNWYQQKPGKAPKLLIYGASNLESGIPDRFSGSGSGTDFTLTISRLEEEDAASYYCQQSNEDPFTFGQGTKLEIKR

>  <Relative KD>
7.52

$$$$

Here's the next entry for you.
Reported Relative KD for VH6/VK3 humanized 11C12 antibody (antibody, human IgG1, kappa, V domains shown, Human IgG1/kappa; tested as HEK293 EBNA supernatant; also called H6K3) VH: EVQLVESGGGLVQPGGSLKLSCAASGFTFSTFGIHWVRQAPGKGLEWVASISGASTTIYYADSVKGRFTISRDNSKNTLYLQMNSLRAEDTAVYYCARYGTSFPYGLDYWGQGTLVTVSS VL: DIVMTQSPDSLAVSLGERATINCKASQSVDYDGDSYMNWYQQKPGKAPKLLIYGASNLESGIPDRFSGSGSGTDFTLTISRLEPEDAAVYYCQQSNEDPFTFGQGTKLEIKR : what is it?
4.9
